B1: NEK8 (parent)
chain: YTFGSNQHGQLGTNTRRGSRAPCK

Variants of: B1
MEASUREMENT DESCRIPTION: protein stability index of a GFP-peptide fusion (GPS, HEK-293T) (PSI 1-6); higher = more stable;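 note: lentivirally expressed fusions sorted by FACS into six bins by GFP to DsRed ratio, PSI derived from sequencing read proportions per bin multiplied by bin number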
ASSAY SETUP: c terminus: a fixed tail appended
Where protein stability index equals or exceeds 4, the correct label is criterion met; where it does not, the label is criterion not met.

[[record]]
mutation_annotation = "R20Y"
discrete_label = "criterion not met"

[[record]]
mutation_annotation = "H8E"
discrete_label = "criterion met"

[[record]]
mutation_annotation = "Y1A"
discrete_label = "criterion met"

[[record]]
mutation_annotation = "P22W"
discrete_label = "criterion not met"

[[record]]
mutation_annotation = "G18H"
discrete_label = "criterion not met"

[[record]]
mutation_annotation = "T13F"
discrete_label = "criterion not met"

[[record]]
mutation_annotation = "R17M"
discrete_label = "criterion not met"

[[record]]
mutation_annotation = "G4V"
discrete_label = "criterion met"

[[record]]
mutation_annotation = "C23S"
discrete_label = "criterion not met"

[[record]]
mutation_annotation = "T13P"
discrete_label = "criterion met"

[[record]]
mutation_annotation = "T15Q"
discrete_label = "criterion met"

[[record]]
mutation_annotation = "Q10F"
discrete_label = "criterion not met"

[[record]]
mutation_annotation = "P22R"
discrete_label = "criterion not met"

[[record]]
mutation_annotation = "R20Q"
discrete_label = "criterion met"

[[record]]
mutation_annotation = "K24F"
discrete_label = "criterion not met"

[[record]]
mutation_annotation = "G4A"
discrete_label = "criterion not met"

[[record]]
mutation_annotation = "C23I"
discrete_label = "criterion not met"

[[record]]
mutation_annotation = "T13C"
discrete_label = "criterion not met"

